Assign Kd to each entry below.
tested-system: Escherichia coli SC (^EcSC) (Escherichia coli, UniProt P0A988)
Construct: His tag (inferred from the pET15b vector and Ni-NTA purification) (N); made in house; host or cells: E. coli
Sequence (P0A988 whole entry): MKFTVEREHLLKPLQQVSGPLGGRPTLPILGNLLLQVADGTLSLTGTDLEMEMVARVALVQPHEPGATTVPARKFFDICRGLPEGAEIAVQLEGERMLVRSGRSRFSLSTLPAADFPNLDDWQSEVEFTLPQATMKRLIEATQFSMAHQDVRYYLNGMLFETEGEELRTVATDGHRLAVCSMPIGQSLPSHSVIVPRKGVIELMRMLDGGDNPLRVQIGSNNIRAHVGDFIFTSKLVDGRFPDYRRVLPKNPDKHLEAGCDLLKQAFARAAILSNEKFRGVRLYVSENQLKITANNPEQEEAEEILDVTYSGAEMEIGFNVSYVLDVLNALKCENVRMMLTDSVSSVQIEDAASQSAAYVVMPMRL
protocol-details: biochemical
Type: binding
condition-details: Kd (nM), ITC at 298.15 K (25° C.)
Description: The procedure has been described previously (Wolff, P.; Oliéric, V.; Briand, J. P.; Chaloin, O.; Dejaegere, A.; Dumas, P.; Ennifar, E.; Guichard, G.; Wagner, J.; Burnouf, D. Y., Structure-Based Design of Short Peptide Ligands Binding onto the E. coli Processivity Ring. J. Med. Chem. 2011, 54 (13), 4627-4637). […] Buffer exchange was performed on Centrikon 10 K at 4° C. before use and protein quality was assessed by DLS. […]
Numbered stars: 1 amine (or outer) side, 2 acyl side, 3 side chain; on linkers, the order of the positions; unused ones are H or OH. Square brackets hold non-standard residues; d marks the D form. Peptide text beside a SMILES is read from it. * marks the point of attachment. NEtAsp = CCN([C@@H](CC(=O)[*:3])C(=O)[*:2])[*:1]; Acryloyl(3-(3-pyridyl),E) = O=C(/C=C/c1cccnc1)*; Cha = N[C@@H](CC1CCCCC1)C(=O)O; NMeD = CN[C@@H](CC(=O)O)C(=O)O
A bare number is not enough; add the unit after it.

CC(C)C[C@H](NC(=O)[C@H](CC(=O)O)N(C)C(=O)[C@H](CC1CCCCC1)NC(=O)[C@H](CCC(N)=O)NC(=O)/C=C/c1cccnc1)C(=O)N1CCC[C@H]1C(=O)N[C@@H](Cc1ccccc1)C(=O)O [P46] ({Acryloyl(3-(3-pyridyl),E)}-Q[Cha][NMeD]LPF-OH) : 36 nM

Hi! Can you tell me Kd for each of these compounds?
1. CCN(C(=O)[C@H](CC1CCCCC1)NC(=O)[C@H](CCC(N)=O)NC(C)=O)[C@@H](CC(=O)O)C(=O)N[C@@H](CC(C)C)C(=O)N[C@@H](Cc1ccccc1)C(=O)O [P5] (Ac-Q[Cha][NEtAsp]LF-OH)
2. CC(=O)N[C@@H](CCC(N)=O)C(=O)N[C@@H](CC1CCCCC1)C(=O)N(C)[C@@H](CC(=O)O)C(=O)N[C@@H](CC(C)C)C(=O)N[C@@H](Cc1ccccc1)C(=O)O [P4] (Ac-Q[Cha][NMeD]LF-OH)

output:
523 nM
114 nM

====

Please respond with reported Kd for every item in the list.
tested-system: Escherichia coli SC (^EcSC) (Escherichia coli)
Construct: His tag (inferred from the pET15b vector and Ni-NTA purification) (N); made in house; host or cells: E. coli
protocol-details: biochemical
Format: binding
condition-details: Kd (nM), ITC at 298.15 K (25° C.)
Square brackets hold non-standard residues; d marks the D form. Peptide text beside a SMILES is read from it. NFurfurylGly = O=C(O)CNCc1ccco1; Cha = N[C@@H](CC1CCCCC1)C(=O)O; Phe(ol) = N[C@H](CO)Cc1ccccc1
Answers are plain numbers, in nM.

CC(C)C[C@H](NC(=O)[C@H](CC(=O)O)NC(=O)[C@H](CC1CCCCC1)NC(=O)[C@H](CCC(N)=O)NC(=O)CNCc1ccco1)C(=O)N[C@@H](Cc1ccccc1)C(=O)O [P9] (H-[NFurfurylGly]Q[Cha]DLF-OH) : 171
CC(=O)N[C@@H](CCC(N)=O)C(=O)N[C@@H](CC1CCCCC1)C(=O)N[C@@H](CC(=O)O)C(=O)N[C@@H](CC(C)C)C(=O)N[C@H](CO)Cc1ccccc1 [P24] (Ac-Q[Cha]DL[Phe(ol)]) : 751

For the next question, use this compound.
input: Please give the measured Kd for this compound: CC(=O)N[C@@H](CCC(N)=O)C(=O)N[C@@H](CC1CCCCC1)C(=O)N[C@@H](CC(=O)O)C(=O)N[C@@H](CC(C)C)C(=O)N[C@@H](Cc1ccccc1)C(N)=O [P26] (Ac-Q[Cha]DLF-NH2)
output: 268
